Molecular target: T1, ICOS (Mus musculus, UniProt Q9WVS0)
T1 sequence (membrane protein, looked up): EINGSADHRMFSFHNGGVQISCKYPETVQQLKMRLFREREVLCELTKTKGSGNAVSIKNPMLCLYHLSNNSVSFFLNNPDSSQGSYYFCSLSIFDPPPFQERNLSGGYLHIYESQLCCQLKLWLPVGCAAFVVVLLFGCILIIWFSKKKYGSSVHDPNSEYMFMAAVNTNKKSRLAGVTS
Experiment: CDS well image, 293T cells transfected with the mouse gene, stained with the mouse fusion protein

Binder	binding result
B7-2Ig (Fc fusion, also called mouse B7-2Ig fusion protein; not shown: Ig (Fc) part and any linker of the R&D Systems fusion protein) VSVETQAYFNGTAYLPCPFTKAQNISLSELVVFWQDQQKLVLYEHYLGTEKLDSVNAKYLGRTSFDRNNWTLRLHNVQIKDMGSYDCFIQKKPPTGSIILQQTLTELSVIANFSEPEIKLAQNVTGNSGINLTCTSKQGHPKPKKMYFLITNSTNEYGDNMQISQDNVTELFSISNSLSLSFPDGVWHMTVVCVLETESMKISSKPLNFTQEFPSPQTYWK	no binding
B7-1Ig (Fc fusion, also called mouse B7-1Ig fusion protein; not shown: Ig (Fc) part and any linker of the R&D Systems fusion protein) VDEQLSKSVKDKVLLPCRYNSPHEDESEDRIYWQKHDKVVLSVIAGKLKVWPEYKNRTLYDNTTYSLIILGLVLSDRGTYSCVVQKKERGTYEVKHLALVKLSIKADFSTPNITESGNPSADTKRITCFASGGFPKPRFSWLENGRELPGINTTISQDPESELYTISSQLDFNTTRNHTIKCLIKYGDAHVSEDFTWEKPPEDPPDSKN	no binding
